# key: entry, value: pKd
# target of assay: T1, recombinant TAT226-His fusion protein (human, UniProt Q8N2G4 21-115)
# T1 construct: also called recombinant antigen; not shown: C-terminal polyhistidine tag
# T1 sequence: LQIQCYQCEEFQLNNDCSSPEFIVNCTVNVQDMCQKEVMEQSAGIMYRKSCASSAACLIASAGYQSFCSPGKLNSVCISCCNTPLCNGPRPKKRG
# procedure details: SPR, BIACORE 3000, IgG immobilised on CM5 chip, TAT226-His injected (0.7-500 nM), 25 C
# Experimental: The binding affinity of YWO.49, YWO.49.B7, YWO.49.C9, YWO.49.H2, and YWO.49.H6 for recombinant antigen was determined by surface plasmon resonance measurement using a BIACORE® 3000 system (Biacore, Inc., Piscataway, N.J.). […] The equilibrium dissociation constant (Kd) was calculated as the ratio koff/kₒₙ.
pKd is a log-scale quantity: -log10 of the concentration expressed in molar.

Q: Specify pKd for YWO.49.H6 (antibody, V domains shown, also called YWO.H6) VH: EVQLVESGGGLVQPGGSLRLSCAASGFTITNYGIHWVRQAPGKGLEWVGRIYPDSGATYYADSVKGRFTISADTSKNTAYLQMNSLRAEDTAVYYCARKLWISIAGMDYWGQGTLVTVSS VL: DIQMTQSPSSLSASVGDRVTITCRASQDVSTAVAWYQQKPGKAPKLLIYSASFLYSGVPSRFSGSGSGTDFTLTISSLQPEDFATYYCQHSYATPFTFGQGTKVEIKR and stop.
A: 10.30

Q: Specify pKd for YWO.49.H2 (antibody, V domains shown) VH: EVQLVESGGGLVQPGGSLRLSCAASGFTITNYGIHWVRQAPGKGLEWVGRIYPDSGATYYADSVKGRFTISADTSKNTAYLQMNSLRAEDTAVYYCARKLWVSLAPMDYWGQGTLVTVSS VL: DIQMTQSPSSLSASVGDRVTITCRASQDVSTAVAWYQQKPGKAPKLLIYSASFLYSGVPSRFSGSGSGTDFTLTISSLQPEDFATYYCQQSYGTPFIFGQGTKVEIKR and stop.
A: 9.64

Others:
Q: Specify pKd for YWO.49 (antibody, V domains shown, detected with anti-human IgG; also called anti-TAT226 monoclonal antibody YWO.49) VH: EVQLVESGGGLVQPGGSLRLSCAASGFTITNYGIHWVRQAPGKGLEWVGRIYPDSGATYYADSVKGRFTISADTSKNTAYLQMNSLRAEDTAVYYCARKLWVSRAGMDYWGQGTLVTVSS VL: DIQMTQSPSSLSASVGDRVTITCRASQDVSTAVAWYQQKPGKAPKLLIYSASFLYSGVPSRFSGSGSGTDFTLTISSLQPEDFATYYCQQSYTTPPTFGQGTKVEIKR and stop.
A: 7.33

meta.source: patent US20120100159A1
